target: hsCRE24 (CRE half-site DNA, ATGAC); assay: Electrophoretic mobility shift assay, binding to hsCRE24 DNA; details: 4° C.; read-out: affinity (Kd) for hsCRE
pKd: recorded values
When answering, recall that pKd equals minus log10 of the concentration in mol/L, and write that number alone.

1. GPSQPTYPGDDAPVEDLKRFRNTLAARRSRARKAARAAA [PPBR4^SR] ... 8.72

We now examine a further sequence.
Prompt: State recorded pKd with hsCRE24 (CRE half-site DNA, ATGAC), entry DPAALKRARNTEAARRSRARKLQRMQC [G27, reference compound] , no comment.
Completion: 6.39

###

biological target: cGMP-dependent protein kinase (PKG); assay: Phosphotransferase assay, PKG; assay type: biochemical
Ends that are not written are not given here. * marks the point of attachment. X1 = C[C@]12O[C@H](C[C@]1(O)C(=O)NCCCCCCCCNC(=O)C*)n1c3ccccc3c3c4c(c5c6ccccc6n2c5c31)CNC4=O
value kind: IC50 (nM)
Give the value in nM but do not write nM after it.

Prompt: State, in one line, measured IC50 of GPSQPTYPGDDAPVEDLIRFYNDLTYYLFVVSGRTGRRNC(X1)IHD-NH2 (C-terminus assumed) [1-K252a]
Completion: 679

###

target: catalytic subunit of PKA (Homo sapiens, UniProt P17612); test: Fluorescence polarization, affinity for PKA catalytic subunit; type: binding; conditions: absence of ATP
Ends that are not written are not given here. * marks the point of attachment. Fluorescein(5-NHCOCH2) = O=C(C*)Nc1ccc2c(c1)C(=O)OC21c2ccc(O)cc2Oc2cc(O)ccc21
value kind: pKd
Quick note: pKd values are minus log10 of concentrations in mol/L.

Prompt: Return reported pKd. Input substance: GPSQPTYPGDDAPVEDLIRFYNDLTYYLFVVSGRTGRRNAIHDC(Fluorescein(5-NHCOCH2))-NH2 (C-terminus assumed) [1^Flu]
Completion: 6.64

###

molecular target: hsCRE24 (CRE half-site DNA, ATGAC); experiment: Electrophoretic mobility shift assay, binding to hsCRE24 DNA; conditions: physiological ionic strength; read-out: equilibrium dissociation constant (Kd) of binding to hsCRE
value kind: Kd
Report field: quantity (unit follows the number).

1) GPSQPTYPGDDAPVEDLKRFRNTLAARRSRARKLQRMKQ [PPBR2^SR] ... 5 nM

Would you kindly look at the next entry?
Prompt: Look up and report measured Kd for this entry: GPSQPTYPGDDAPVEDLKRFRNTLAARRSRARKAARAAA [PPBR4^SR]
Completion: 1.5 nM

Sourced from patent US20110028686A1
